Catalogue of molecules with associated log10(IC50)
Target: human PAD4 (Homo sapiens)
Construct: human PAD4 (NM_012387), A2P663, was PCR amplified; His-SUMO (N, cleaved yes)
Sequence (Q9UM07 2-663): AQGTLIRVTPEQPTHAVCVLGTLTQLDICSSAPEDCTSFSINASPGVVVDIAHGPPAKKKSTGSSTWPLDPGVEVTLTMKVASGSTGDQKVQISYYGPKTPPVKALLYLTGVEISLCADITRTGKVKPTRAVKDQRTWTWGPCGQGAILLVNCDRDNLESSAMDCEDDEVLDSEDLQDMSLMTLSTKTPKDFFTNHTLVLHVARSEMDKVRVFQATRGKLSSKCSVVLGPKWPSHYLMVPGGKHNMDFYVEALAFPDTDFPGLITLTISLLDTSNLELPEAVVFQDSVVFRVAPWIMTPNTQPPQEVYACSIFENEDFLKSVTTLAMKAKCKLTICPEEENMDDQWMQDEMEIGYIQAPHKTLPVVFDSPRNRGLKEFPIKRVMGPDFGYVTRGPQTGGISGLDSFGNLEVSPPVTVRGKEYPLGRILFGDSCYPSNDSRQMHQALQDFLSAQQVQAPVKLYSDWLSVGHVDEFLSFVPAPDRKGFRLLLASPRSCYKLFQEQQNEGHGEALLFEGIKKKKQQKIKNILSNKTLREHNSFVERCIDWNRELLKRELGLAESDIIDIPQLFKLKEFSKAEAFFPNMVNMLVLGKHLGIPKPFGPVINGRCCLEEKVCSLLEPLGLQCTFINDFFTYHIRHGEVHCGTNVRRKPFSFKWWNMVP
Experiment: In vitro PAD4 BAEE biochemical assay
Conditions: human PAD4, BAEE substrate; 5 nM PAD4, 2 mM calcium chloride, 3 mM BAEE; geometric mean of multiple experiments
reported.metric: log10(IC50) (log10 of the value in nM)

molecule: COc1cc(C(=O)N2[C@H]3CC[C@@H]2[C@H](N)C3)cc2nc(-c3cc4ccc([C@@H](C)NC(=O)C(C)C(F)(F)F)nc4n3CC3CC3)c(C)n12 (stereo partly drawn) [Example 7]
log10(IC50): 2.10

molecule: COc1cc(C(=O)N2[C@H]3CC[C@@H]2[C@H](N)C3)cc2nc(-c3cc4ccc([C@@H](C)Nc5ccccn5)nc4n3CC3CC3)c(C)n12 [Example 261]
log10(IC50): 2.16

molecule: COc1cc(C(=O)N2[C@H]3CC[C@@H]2[C@H](N)C3)cc2nc(-c3cc4ccc(N5CCCC(C)S5(=O)=O)nc4n3CC3CC3)c(C)n12 (stereo partly drawn) [Example 454]
log10(IC50): 2.16

molecule: CCc1ccc2cc(-c3nc4cc(C(=O)N5[C@H]6CC[C@@H]5[C@H](N)C6)cc(OC)n4c3C)n(CCO)c2n1 [Example 497]
log10(IC50): 3.09

molecule: COc1cc(C(=O)N2[C@H]3CC[C@@H]2[C@H](N)C3)cc2nc(-c3cc4ccc([C@@H](C)NC(=O)c5ccccc5)nc4n3CC3CC3)c(C)n12 [Example 176]
log10(IC50): 1.95

molecule: CCc1c(-c2cc3ccc(N(C(F)F)S(C)(=O)=O)nc3n2CC2CC2)nc2cc(C(=O)N3CC[C@H](O)[C@H](N)C3)cc(OC)n12 [Example 404]
log10(IC50): 4.03

molecule: COc1cc(C(=O)N2[C@H]3CC[C@@H]2[C@H](N)C3)cc2nc(-c3cc4ccc([C@@H](C)NC(=O)c5cc(C)nc(Cl)c5)nc4n3CC3CC3)c(C)n12 [Example 46]
log10(IC50): 1.52

molecule: COc1cc(C(=O)N2C[C@H]3CCCN[C@H]3C2)cc2nc(-c3cc4ccc([C@@H](C)NC(=O)c5ccccc5)nc4n3CC3CC3)c(C)n12 [Example 58]
log10(IC50): 2.89

molecule: CCC1CC2CN(C(=O)c3cc(OC)n4c(C)c(-c5cc6ccc(N(C(F)F)S(C)(=O)=O)nc6n5CC5CC5)nc4c3)C1C2N (stereo not drawn) [Example 370]
log10(IC50): 4.23

molecule: COc1cc(C(=O)N2[C@H]3CC[C@@H]2[C@H](N)C3)cc2nc(-c3cc4ccc(C(C)(O)c5ccccc5)nc4n3CC3CC3)c(C)n12 (stereo partly drawn) [Example 573]
log10(IC50): 3.00

molecule: COc1cc(C(=O)N2[C@H]3CC[C@@H]2[C@H](N)C3)cc2nc(-c3cc4ccc([C@@H](C)Nc5cccc(Cl)n5)nc4n3CC3CC3)c(C)n12 [Example 262]
log10(IC50): 2.94

molecule: CCOC1C[C@@H]2CN(C(=O)c3cc(OC)n4c(C)c(-c5cc6ccc(N(C(F)F)S(C)(=O)=O)nc6n5CC5CC5)nc4c3)[C@H]1[C@@H]2N (stereo partly drawn) [Example 371]
log10(IC50): 4.03
